B1: tRNA (parent)
chain: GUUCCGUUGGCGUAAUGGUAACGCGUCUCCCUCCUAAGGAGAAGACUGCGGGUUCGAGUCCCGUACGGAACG

# Variants of: B1
# PROTOCOL: yeast fitness relative to wild type (ratio to wild type); higher = fitter; tRNA-Arg(CCU), competitive growth, 37 C, YPD
Variants at the floor of the assay were thinned out.
Below, each entry is listed alongside its reported yeast fitness.
MEASURE: yeast fitness

GUGCUGUUGACGUAAUGCUAACGUGUCUCCCUCCUAAGGAGAAGCCUGCGGGUUCGAGUCCCGUACGGAACG [U3G C5U G10A G18C C24U A45C] | 0.553
GUUCCGUUGGCGUAAUGGUAACGCGUCUCCCUCCUAAGGAGAAGACUACGGGUUCGAGUCCCGGACGGAACG [G48A U64G] | 1
GUUCCGUUGGCGUAAUGGUAACGCGUCUCCCUCCUAAAGAGAGGACUGCGGGUUCGAGUCCCGUACGGAACG [G38A A43G] | 0.607
GUUCCGUUAGUGUAAUGGUAACGCGUCUGCCUCCUAAGGAGAAGACUGCGGGUUCGAGUCCCGUACGGAACG [G9A C11U C29G] | 0.609
GUUCCGUUCGCGUAAUGGUAACGCGUCUCCCUCCUAAGGAGAAGACUGCGGUUUCGAGUCCCGUACGGAACG [G9C G52U] | 0.502
GUUCUGUUGGCGUAAUGGUAACGCGUCUCCCUCCUAAGGAGAAGACUGCGGGUUCGAGUCCCGUUCGGAACG [C5U A65U] | 0.999
GUUCCGUUGGCGUAAUGGUAACGCGUCUCCCUCGUAAAGAGAAGACUGCGGGUUCGAGUCCCGUACGGAACG [C34G G38A] | 0.624
GUUCCGUUGGCGUAAUGGUAACGCGUUUCCCUCCUAAAGAGAAGACUGCGGGUUCGAGUCCCGUAUGGAACG [C27U G38A C66U] | 0.623
GUUCCGUUGGCGUAAUGGUUACGCGUCUCCCUCCUAAGGAGGAGACUGCGGGUUCGAGUCCCGUGCGGAACG [A20U A42G A65G] | 0.689
GUUCCGUUGGCGUAAUGGUAACGCGUCUCCUUCCUAAGGAGCAGACUGCGGGUUCGAGUCCCGUACGGAACG [C31U A42C] | 1.17
GUUCCGUUGGCGUAAUGGUAACGCGUCUCGCUCCUAAGGAGAAGACUGGGGGUUCGAGUCCCGUACGGAACG [C30G C49G] | 0.635
GUUCCGUUGGCGUAAUGGUAACGCCUCUCCCUCCUAAGGAGAAGACUGCGAGUUCGAGUCCCGUGCGGAACG [G25C G51A A65G] | 0.742
GUUCCGUUAGCGAAAUGGUAACGCGUCUCCCUCCUAAGGAGAAGACUGCGGGUUCGAGUCCCGUACGGCACG [G9A U13A A69C] | 0.809
GUUCCAUUGGCGUAAUGGUAACGCGUCUCACUCCUAAGGAGAAGUCUGCGGGUUCGAGUCCCGUACGGAACG [G6A C30A A45U] | 0.667
GUUCCGUUGGCGGAAUGGUAAUGCAUCUCCAUCCUAAGGAGAAGACUGCGGGUUCGAGUCCCGUACGGAACG [U13G C22U G25A C31A] | 0.601
GUUCCGUUGGCGUAAUGGUAACGCCUCUCCCUCCUAAGGAGAAGACUGCGGGUUUGAGUCCCGUACGGAACG [G25C C55U] | 0.916
GUUCCGGUGGCGUUAUGGAAAUGCGUCUCCCUCCUAAGGAGAAGACUGCGGGUUCGAGUCACGAACGGUACG [U7G A14U U19A C22U C61A U64A A69U] | 0.543

Where do the numbers come from? From the RNAGym collection of RNA variant scans (doi:10.1126/science.aae0568).
